- Target Or Test System: GST-MCL-1 (Homo sapiens, UniProt Q07820)
- Sequence (Q07820 whole entry): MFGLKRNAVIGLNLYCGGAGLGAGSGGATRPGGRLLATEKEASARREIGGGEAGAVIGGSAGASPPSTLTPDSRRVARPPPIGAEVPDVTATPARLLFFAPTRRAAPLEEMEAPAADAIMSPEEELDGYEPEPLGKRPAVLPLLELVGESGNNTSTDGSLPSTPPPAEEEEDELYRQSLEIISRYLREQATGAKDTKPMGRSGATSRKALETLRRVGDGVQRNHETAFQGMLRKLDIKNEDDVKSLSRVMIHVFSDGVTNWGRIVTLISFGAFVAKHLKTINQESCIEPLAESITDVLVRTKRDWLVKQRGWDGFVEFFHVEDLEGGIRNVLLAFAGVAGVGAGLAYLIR
- Method Notes: TR-FRET MCL-1 binding assay (competition with probe F-Bak)
- Condition Parameters: MCL-1 Binding Ki (nM, 10% HS), in the presence of 10% HS (human serum)
What Ki was measured for each of the following?
Answers are plain numbers, in nM.

Kindly give each listed record's Ki.
1. Cc1c(Cl)c2c(Cl)c(C)c1-c1c(-c3ccc(F)cc3)sc3ncnc(c13)O[C@@H](C(=O)O)Cc1cc(ccc1OCc1ccnc(N3CCC(C)(CC(=O)O)CC3)n1)OC[C@@H](CN1CCN(C)CC1)O2 [Example 41]
2. COCCOCCOCCOc1ccc(COc2ccc3cc2C[C@H](C(=O)O)Oc2ncnc4sc(-c5ccc(F)cc5)c(c24)-c2c(C)c(Cl)c(c(Cl)c2C)O[C@H](CN2CCN(C)CC2)CO3)nc1 [Example 162]
3. COCCOCCOCCC1CCN(c2nccc(COc3ccc4cc3C[C@H](C(=O)O)Oc3ncnc5sc(-c6ccc(F)cc6)c(c35)-c3c(C)c(Cl)c(c(Cl)c3C)O[C@H](CN3CCN(C)CC3)CO4)n2)CC1 [Example 52]
4. Cc1c(Cl)c2c(Cl)c(C)c1-c1c(-c3ccc(F)cc3)sc3ncnc(c13)O[C@@H](C(=O)O)Cc1cc(ccc1OCc1ccnc(-c3ccc(OCC4COCCOCCOCCOCCO4)cc3)n1)OC[C@@H](CN1CCN(C)CC1)O2 (stereo partly shown) [Example 107]

// result
1. 1.05
2. 0.934
3. 3.31
4. 0.412

---

What Ki was measured for each of the following?
- Target Or Test System: GST-MCL-1 (Homo sapiens, UniProt Q07820)
- Method Notes: TR-FRET MCL-1 binding assay (competition with probe F-Bak)
- Condition Parameters: MCL-1 Binding Ki (nM, 10% HS), in the presence of 10% HS (human serum)
- Method: Tb-anti-GST antibody was purchased from Invitrogen (Catalog No. PV4216). […] The samples were then mixed on a shaker for 1 minute and incubated for an additional 2 hours at room temperature. […] Fluorescence was measured on the Envision (Perkin Elmer) using a 340/35 nm excitation filter and 520/525 (F-Bak) and 495/510 nm (Tb-labeled anti-his antibody) emission filters. […]
Numbers only, in nM.

Solved cases (5 shown):
Compound	Result Units	Ki
Cc1c(Cl)c2c(Cl)c(C)c1-c1c(-c3ccc(F)cc3)sc3ncnc(c13)O[C@@H](C(=O)O)Cc1cc(ccc1OCc1ccnc(N3CCC(F)(COCCOCC4COCCO4)CC3)n1)OC[C@@H](CN1CCN(C)CC1)O2 (stereo partly drawn)	nM	2.1
COCCOCCOCCOCCOCCOCC1(F)CC=C(c2nccc(COc3ccc4cc3C[C@H](C(=O)O)Oc3ncnc5sc(-c6ccc(F)cc6)c(c35)-c3c(C)c(Cl)c(c(Cl)c3C)O[C@H](CN3CCN(C)CC3)CO4)n2)CC1 (single isomer, unassigned) [Example 100]	nM	0.176
COCCOCCOCCOCCO[C@H]1CC[C@H](c2nccc(COc3ccc4cc3C[C@H](C(=O)O)Oc3ncnc5sc(-c6ccc(F)cc6)c(c35)-c3c(C)c(Cl)c(c(Cl)c3C)O[C@H](CN3CCN(C)CC3)CO4)n2)CC1	nM	0.053
Cc1c(Cl)c2c(Cl)c(C)c1-c1c(-c3ccc(F)cc3)sc3ncnc(c13)O[C@@H](C(=O)O)Cc1cc(ccc1OCc1ccnc([C@H]3CC[C@@H](CC(=O)O)CC3)n1)OC[C@@H](CN1CCN(C)CC1)O2	nM	0.049
COCCOCCOCCOCCOCCOCCOCCOCCOCCOCCOCCNC(=O)c1ccc(-c2nccc(COc3ccc4cc3C[C@H](C(=O)O)Oc3ncnc5sc(-c6ccc(F)cc6)c(c35)-c3c(C)c(Cl)c(c(Cl)c3C)O[C@H](CN3CCN(C)CC3)CO4)n2)cc1	nM	3.12

Kindly give each listed record's Ki.
1. COCC(COC)Oc1nccc(COc2ccc3cc2C[C@H](C(=O)O)Oc2ncnc4sc(-c5ccc(F)cc5)c(c24)-c2c(C)c(Cl)c(c(Cl)c2C)O[C@H](CN2CCN(C)CC2)CO3)n1
2. Cc1c2ccc(c1Cl)O[C@H](CN1CCN(C)CC1)COc1ccc(OCc3ccnc([C@H]4CCCN4C(=O)CCP(C)(C)=O)n3)c(c1)C[C@H](C(=O)O)Oc1ncnc3sc(-c4ccc(F)cc4)c-2c13
3. COCCOCCOCC1(F)CC=C(c2nccc(COc3ccc4cc3C[C@H](C(=O)O)Oc3ncnc5sc(-c6ccc(F)cc6)c(c35)-c3c(C)c(Cl)c(c(Cl)c3C)O[C@H](CN3CCN(C)CC3)CO4)n2)CC1 (single isomer, unassigned) [Example 86]
4. COCCOCCOCCOCCOCCOCCOCCOCCOCCOCCOCCC(=O)NCc1ccc(-c2nccc(COc3ccc4cc3C[C@H](C(=O)O)Oc3ncnc5sc(-c6ccc(F)cc6)c(c35)-c3c(C)c(Cl)c(c(Cl)c3C)O[C@H](CN3CCN(C)CC3)CO4)n2)cc1

// result
1: 0.363; 2: 92.6; 3: 0.102; 4: 0.513

---

- Target Or Test System: UniProtKB Q07820
- Method Notes: TR-FRET MCL-1 binding assay (competition with probe F-Bak)
- Condition Parameters: MCL-1 Binding Ki (nM, 10% HS), in the presence of 10% HS (human serum)
- Procedure: Tb-anti-GST antibody was purchased from Invitrogen (Catalog No. PV4216). […] The samples were then mixed on a shaker for 1 minute and incubated for an additional 2 hours at room temperature. […] Fluorescence was measured on the Envision (Perkin Elmer) using a 340/35 nm excitation filter and 520/525 (F-Bak) and 495/510 nm (Tb-labeled anti-his antibody) emission filters. […]
Assay Endpoint: Ki (nM)
Answers are plain numbers, in nM.

Solved cases (4 shown):
Molecule	Result Units	Ki
COCCOCCOCCOCCCN1CCN(c2nccc(COc3ccc4cc3C[C@H](C(=O)O)Oc3ncnc5sc(-c6ccc(F)cc6)c(c35)-c3c(C)c(Cl)c(c(Cl)c3C)O[C@H](CN3CCN(C)CC3)CO4)n2)CC1	nM	0.632
COCCOCCOCCOCCOCCOCC1(C)CC=C(c2nccc(COc3ccc4cc3C[C@H](C(=O)O)Oc3ncnc5sc(-c6ccc(F)cc6)c(c35)-c3c(C)c(Cl)c(c(Cl)c3C)O[C@H](CN3CCN(C)CC3)CO4)n2)CC1 (single isomer, unassigned) [Example 85]	nM	0.191
COCCOCCOCCOc1ccc(-c2nccc(COc3ccc4cc3C[C@H](C(=O)O)Oc3ncnc5sc(-c6ccc(F)cc6)c(c35)-c3c(C)c(Cl)c(c(Cl)c3C)O[C@H](CN3CCN(C)CC3)CO4)n2)cn1	nM	1.08
Cc1c(Cl)c2c(Cl)c(C)c1-c1c(-c3ccc(F)cc3)sc3ncnc(c13)O[C@@H](C(=O)O)Cc1cc(ccc1OCc1ccnc(-c3ccc(CCC(=O)O)cc3)n1)OC[C@@H](CN1CCN(C)CC1)O2	nM	0.165

// query Look up Ki for this molecule: COC1CC2(C1)CN(c1nccc(COc3ccc4cc3C[C@H](C(=O)O)Oc3ncnc5sc(-c6ccc(F)cc6)c(c35)-c3c(C)c(Cl)c(c(Cl)c3C)O[C@H](CN3CCN(C)CC3)CO4)n1)C2
// result 1

---

What log10 IC50 was measured for each of the following?
- Tested on: AMO-1 human multiple myeloma tumor cell line
- Method Notes: AMO-1 cell viability assay (CellTiter-Glo, 24 hours)
- Type: cell-based
- Condition Parameters: Homo sapiens, AMO1, 24 h, read-out: AMO-1 Viability IC50 (μM, 10% FBS), 10% FBS, 24 hours of compound treatment
Please be aware that the numbers have been log10-transformed from IC50 in µM.

Compound	log10 IC50
Cc1c(Cl)c2c(Cl)c(C)c1-c1c(-c3ccc(F)cc3)sc3ncnc(c13)O[C@@H](C(=O)O)Cc1cc(ccc1OCc1ccnc(N3CC4C(C3)C4(F)F)n1)OC[C@@H](CN1CCN(C)CC1)O2 (some centres unmarked)	-3.55
COCCOCCOCCOCCO[C@H]1CC[C@H](c2nccc(COc3ccc4cc3C[C@H](C(=O)O)Oc3ncnc5sc(-c6ccc(F)cc6)c(c35)-c3c(C)c(Cl)c(c(Cl)c3C)O[C@H](CN3CCN(C)CC3)CO4)n2)CC1	-3.52
Cc1c(Cl)c2c(Cl)c(C)c1-c1c(-c3ccc(F)cc3)sc3ncnc(c13)O[C@@H](C(=O)O)Cc1cc(ccc1OCc1ccnc(N3C[C@H](O)[C@@H](O)C3)n1)OC[C@@H](CN1CCN(C)CC1)O2	-1.27
Cc1c(Cl)c2c(Cl)c(C)c1-c1c(-c3ccc(F)cc3)sc3ncnc(c13)O[C@@H](C(=O)O)Cc1cc(ccc1OCc1ccnc(-c3ccc(CCN4CC5COCC5C4)cc3)n1)OC[C@@H](CN1CCN(C)CC1)O2 (some centres unmarked)	-3.03

Here's the next entry for you.
// query Look up log10 IC50 for this compound: COCCOCCOCCOCC1(c2nccc(COc3ccc4cc3C[C@H](C(=O)O)Oc3ncnc5sc(-c6ccc(F)cc6)c(c35)-c3c(C)c(Cl)c(c(Cl)c3C)O[C@H](CN3CCN(C)CC3)CO4)n2)CC1
// result -3.05
